target_under_test: HIV-1 Env of 0260.v5.c36 (HIV-1)
test_details: cell-based or functional assay
result_type: neutralization IC50

Please review the following examples before continuing.
binder | neutralization IC50
CAP256-VRC26.11 (antibody, V domains shown) VH: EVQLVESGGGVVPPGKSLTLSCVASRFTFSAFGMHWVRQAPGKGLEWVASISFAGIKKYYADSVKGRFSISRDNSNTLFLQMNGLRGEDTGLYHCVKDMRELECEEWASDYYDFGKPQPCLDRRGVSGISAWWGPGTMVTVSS VL: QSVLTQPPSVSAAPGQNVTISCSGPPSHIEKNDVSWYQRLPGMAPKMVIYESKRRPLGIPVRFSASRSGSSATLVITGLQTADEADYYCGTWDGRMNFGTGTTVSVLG | > 50 mg/L
CAP256-VRC26.06 (antibody, V domains shown) VH: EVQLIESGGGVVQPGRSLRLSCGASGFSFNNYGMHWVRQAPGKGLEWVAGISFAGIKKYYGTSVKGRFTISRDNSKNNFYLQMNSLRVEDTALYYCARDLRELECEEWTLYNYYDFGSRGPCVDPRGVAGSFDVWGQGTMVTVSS VL: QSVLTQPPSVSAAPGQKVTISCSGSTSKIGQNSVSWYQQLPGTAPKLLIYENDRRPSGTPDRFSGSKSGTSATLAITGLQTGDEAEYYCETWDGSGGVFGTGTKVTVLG | > 50 mg/L

Then this binder:
Problem: Entry CAP256-VRC26.09 (antibody, V domains shown) VH: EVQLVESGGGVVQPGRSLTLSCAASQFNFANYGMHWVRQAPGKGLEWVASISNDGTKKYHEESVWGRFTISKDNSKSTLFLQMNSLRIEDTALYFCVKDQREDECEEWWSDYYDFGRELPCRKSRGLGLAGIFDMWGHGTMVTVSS VL: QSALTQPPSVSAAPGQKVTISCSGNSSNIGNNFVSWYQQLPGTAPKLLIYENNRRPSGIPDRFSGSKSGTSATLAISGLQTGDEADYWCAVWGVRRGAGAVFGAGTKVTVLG has what neutralization IC50?
Solution: > 50 mg/L
